Assay: Colorimetric cytotoxicity test, HEK293A PARP1-/-
Type: cell-based
Conditions: human, PARP1-/- HEK293A cells; PARP1-/- HEK293A cell line; read-out: CC50 of Tpc
QUANTITY NAME: CC50 at 3 days (nM)

1. CC[C@@]1(O)C(=O)OCc2c1cc1n(c2=O)Cc2cc3c(CN(C)C)c(O)ccc3nc2-1 [Tpc, topotecan, reference compound] ... 50

* * *

Collected Vmax values appear next to each entry.
Target: TDP1 (Homo sapiens)
Construct: made in house; host or cells: E. coli
Sequence (Q9NUW8 whole entry): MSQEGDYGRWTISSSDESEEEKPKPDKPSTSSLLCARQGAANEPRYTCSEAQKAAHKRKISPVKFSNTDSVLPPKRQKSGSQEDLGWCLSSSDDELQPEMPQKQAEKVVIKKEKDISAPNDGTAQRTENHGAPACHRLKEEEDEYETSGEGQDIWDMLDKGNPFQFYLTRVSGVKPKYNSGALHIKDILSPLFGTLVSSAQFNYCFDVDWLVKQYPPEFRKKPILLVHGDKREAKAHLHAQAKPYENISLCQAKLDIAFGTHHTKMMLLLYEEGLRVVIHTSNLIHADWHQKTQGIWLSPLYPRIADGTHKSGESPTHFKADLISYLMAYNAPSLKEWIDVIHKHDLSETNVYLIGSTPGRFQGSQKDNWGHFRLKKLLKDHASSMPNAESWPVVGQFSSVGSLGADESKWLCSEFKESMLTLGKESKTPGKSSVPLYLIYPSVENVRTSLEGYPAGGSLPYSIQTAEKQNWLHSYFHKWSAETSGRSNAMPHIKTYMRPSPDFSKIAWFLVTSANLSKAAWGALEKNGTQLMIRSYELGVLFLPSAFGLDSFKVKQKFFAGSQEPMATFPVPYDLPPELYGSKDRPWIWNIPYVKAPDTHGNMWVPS
Assay: Steady-state kinetics of the TDP1 reaction (Vmax, KM, type of inhibition)
Type: biochemical
Design: unit not given here
Details: inhibitor 0.8 mM (so in the source)
QUANTITY NAME: Vmax

1) CC(=O)C1=C(O)C=C2Oc3c(C(=O)C[S+]([O-])c4nc5ccccc5s4)c(O)c(C)c(O)c3[C@@]2(C)C1=O (stereo partly shown) [10a] ... 27.8
2) CC(=O)C1=C(O)C=C2Oc3c(C(=O)C[S+]([O-])c4ccc(Cl)cc4)c(O)c(C)c(O)c3[C@@]2(C)C1=O (stereo partly shown) [10b] ... 8.5
3) CC(=O)C1=C(O)C=C2Oc3c(C(=O)CSc4nc5ccccc5s4)c(O)c(C)c(O)c3C2(C)C1=O (stereo not shown) [7g] ... 25.6
4) CC(=O)C1=C(O)C=C2Oc3c(C(=O)CSc4ccc(Cl)cc4)c(O)c(C)c(O)c3C2(C)C1=O (stereo not shown) [7h] ... 26.7

* * *

Assay: EZ4U colorimetric cytotoxicity test, HEK293A
Assay type: cell-based
Conditions: human, HEK293A cells; intrinsic cytotoxicity, 3 days; read-out: HEK293A CC50
The compounds listed here are annotated with their CC50 at 3 days.
QUANTITY NAME: CC50 at 3 days

1) CC(=O)C1=C(O)C=C2Oc3c(C(=O)CSc4nnc(N)s4)c(O)c(C)c(O)c3[C@@]2(C)C1=O ... > 50 µM
2) CC(=O)C1=C(O)C=C2Oc3c(C(=O)C[S+]([O-])c4ccc(Cl)cc4)c(O)c(C)c(O)c3[C@@]2(C)C1=O (stereo partly shown) [10b] ... > 50 µM
3) CC(=O)C1=C(O)C=C2Oc3c(C(=O)CSc4nc5ccccc5o4)c(O)c(C)c(O)c3C2(C)C1=O (stereo not shown) ... 26 µM
4) CC(=O)C1=C(O)C=C2Oc3c(C(=O)CSC4=NCCS4)c(O)c(C)c(O)c3[C@@]2(C)C1=O ... > 50 µM
5) CC(=O)C1=C(O)C=C2Oc3c(C(=O)CSC(N)=O)c(O)c(C)c(O)c3[C@@]2(C)C1=O ... > 50 µM
6) CC(=O)C1=C(O)C=C2Oc3c(C(=O)CSC(=S)N(C)C)c(O)c(C)c(O)c3[C@@]2(C)C1=O ... > 50 µM
7) CC(=O)C1=C(O)C=C2Oc3c(C(=O)CSc4ccc(Cl)cc4)c(O)c(C)c(O)c3C2(C)C1=O (stereo not shown) ... 10 µM
8) CC(=O)C1=C(O)C=C2Oc3c(C(=O)CSc4nc5ccccc5[nH]4)c(O)c(C)c(O)c3[C@@]2(C)C1=O ... > 50 µM
9) CC(=O)C1=C(O)C=C2Oc3c(C(=O)CSc4nc5ccccc5s4)c(O)c(C)c(O)c3C2(C)C1=O (stereo not shown) ... 3.5 µM
10) CC(=O)C1=C(O)C=C2Oc3c(C(=O)C[S+]([O-])c4nc5ccccc5s4)c(O)c(C)c(O)c3[C@@]2(C)C1=O (stereo partly shown) [10a] ... 20 µM

* * *

Assay: Colorimetric cytotoxicity test, HEK293A PARP1-/-
Assay type: cell-based
Conditions: human, PARP1-/- HEK293A cells; PARP1-/- cell line, intrinsic cytotoxicity (Figure 6); read-out: CC50
QUANTITY NAME: CC50 at 3 days

1) CC(=O)C1=C(O)C=C2Oc3c(C(=O)C[S+]([O-])c4nc5ccccc5s4)c(O)c(C)c(O)c3[C@@]2(C)C1=O (stereo partly shown) [10a] ... 15 to 20 µM

* * *

Assay: EZ4U colorimetric cytotoxicity test, HeLa
Assay type: cell-based, human
Details: human, HeLa cells; intrinsic cytotoxicity, compound alone, 3 days
QUANTITY NAME: CC50 at 3 days (µM)

1) CC(=O)C1=C(O)C=C2Oc3c(C(=O)CSC(N)=O)c(O)c(C)c(O)c3[C@@]2(C)C1=O ... 13
2) CC(=O)C1=C(O)C=C2Oc3c(C(=O)C[S+]([O-])c4nc5ccccc5s4)c(O)c(C)c(O)c3[C@@]2(C)C1=O (stereo partly drawn) [10a] ... 15
3) CC(=O)c1c(O)c(C)c(O)c2c1OC1=CC(=O)C(C(C)=O)C(=O)C12C (stereo not drawn) ... 20

* * *

Target: TDP1 (Homo sapiens)
Construct: made in house; host or cells: E. coli
Experiment: Real-time fluorescence assay of TDP1 activity
Format: biochemical
QUANTITY NAME: IC50

1) CC(=O)c1c(O)c(C)c(O)c2c1OC1=CC(=O)C(C(C)=O)C(=O)C12C (stereo not shown) ... > 50 µM

* * *

Test: Colorimetric cytotoxicity test, HEK293FT
Format: cell-based
Settings: human, HEK293FT cells, intrinsic cytotoxicity
Listing: CC50 at 3 days of selected molecules
QUANTITY NAME: CC50 at 3 days

1. CC(=O)C1=C(O)C=C2Oc3c(C(=O)CSc4nc5ccccc5[nH]4)c(O)c(C)c(O)c3[C@@]2(C)C1=O ... 10 µM
2. CC(=O)C1=C(O)C=C2Oc3c(C(=O)CSc4nnc(N)s4)c(O)c(C)c(O)c3[C@@]2(C)C1=O ... 35 µM
3. CC(=O)C1=C(O)C=C2Oc3c(C(=O)C[S+]([O-])c4ccc(Cl)cc4)c(O)c(C)c(O)c3[C@@]2(C)C1=O (stereo partly shown) [10b] ... 20 µM
4. CC(=O)C1=C(O)C=C2Oc3c(C(=O)C[S+]([O-])c4nc5ccccc5s4)c(O)c(C)c(O)c3[C@@]2(C)C1=O (stereo partly shown) [10a] ... 15 µM
5. CC(=O)C1=C(O)C=C2Oc3c(C(=O)CSC(=S)N(C)C)c(O)c(C)c(O)c3[C@@]2(C)C1=O ... > 50 µM
6. CC(=O)C1=C(O)C=C2Oc3c(C(=O)CSc4ccc(Cl)cc4)c(O)c(C)c(O)c3C2(C)C1=O (stereo not shown) ... 4 µM
7. CC(=O)C1=C(O)C=C2Oc3c(C(=O)CSc4nc5ccccc5s4)c(O)c(C)c(O)c3C2(C)C1=O (stereo not shown) ... 3 µM
8. CC(=O)C1=C(O)C=C2Oc3c(C(=O)CSC(N)=O)c(O)c(C)c(O)c3[C@@]2(C)C1=O ... 7 µM
9. CC(=O)C1=C(O)C=C2Oc3c(C(=O)CSC4=NCCS4)c(O)c(C)c(O)c3[C@@]2(C)C1=O ... 16 µM
10. CC(=O)C1=C(O)C=C2Oc3c(C(=O)CSc4nc5ccccc5o4)c(O)c(C)c(O)c3C2(C)C1=O (stereo not shown) ... 4.5 µM

* * *

Target: TDP1 (Homo sapiens)
Construct: made in house; host or cells: E. coli
Assay: Steady-state kinetics of the TDP1 reaction (Vmax, KM, type of inhibition)
Type: biochemical
Conditions: steady-state conditions; fall in both Vmax and KM with increasing inhibitor
QUANTITY NAME: Type of inhibition of TDP1 enzyme reaction

1. CC(=O)C1=C(O)C=C2Oc3c(C(=O)C[S+]([O-])c4nc5ccccc5s4)c(O)c(C)c(O)c3[C@@]2(C)C1=O (stereo partly shown) [10a] ... uncompetitive
2. CC(=O)C1=C(O)C=C2Oc3c(C(=O)C[S+]([O-])c4ccc(Cl)cc4)c(O)c(C)c(O)c3[C@@]2(C)C1=O (stereo partly shown) [10b] ... uncompetitive
3. CC(=O)C1=C(O)C=C2Oc3c(C(=O)CSc4nc5ccccc5s4)c(O)c(C)c(O)c3C2(C)C1=O (stereo not shown) [7g] ... uncompetitive
4. CC(=O)C1=C(O)C=C2Oc3c(C(=O)CSc4ccc(Cl)cc4)c(O)c(C)c(O)c3C2(C)C1=O (stereo not shown) [7h] ... uncompetitive

* * *

Target: TDP1 (Homo sapiens)
Construct: made in house; host or cells: E. coli
Assay: Real-time fluorescence assay of TDP1 activity
Format: biochemical
Settings: real-time fluorescent assay, 1.5 nM TDP1, 50 nM oligonucleotide; read-out: IC50 (TDP1)
Just a reminder that ties go to N: only IC50 strictly below 5 µM counts as Y.

1) CC(=O)C1=C(O)C=C2Oc3c(C(=O)CSc4ccccn4)c(O)c(C)c(O)c3[C@@]2(C)C1=O ... N
2) CC(=O)C1=C(O)C=C2Oc3c(C(=O)CSC(N)=O)c(O)c(C)c(O)c3[C@@]2(C)C1=O ... N
3) CC(=O)C1=C(O)C=C2Oc3c(C(=O)CSc4ncccn4)c(O)c(C)c(O)c3[C@@]2(C)C1=O ... N
4) CC(=O)C1=C(O)C=C2Oc3c(C(=O)CSc4nnc(N)s4)c(O)c(C)c(O)c3[C@@]2(C)C1=O ... Y
5) CC(=O)C1=C(O)C=C2Oc3c(C(=O)CSc4nc5ccccc5s4)c(O)c(C)c(O)c3C2(C)C1=O (stereo not shown) ... Y
6) CC(=O)C1=C(O)C=C2Oc3c(C(=O)CSc4nc5ccccc5[nH]4)c(O)c(C)c(O)c3[C@@]2(C)C1=O ... Y
7) CC(=O)C1=C(O)C=C2Oc3c(C(=O)C[S+]([O-])c4nc5ccccc5s4)c(O)c(C)c(O)c3[C@@]2(C)C1=O (stereo partly shown) [10a] ... Y
8) CC(=O)C1=C(O)C=C2Oc3c(C(=O)CSc4nnc[nH]4)c(O)c(C)c(O)c3C2(C)C1=O (stereo not shown) ... N
9) CC(=O)C1=C(O)C=C2Oc3c(C(=O)CSc4ccc(Cl)cc4)c(O)c(C)c(O)c3C2(C)C1=O (stereo not shown) ... Y
10) CC(=O)C1=C(O)C=C2Oc3c(C(=O)CSc4nc5ccccc5o4)c(O)c(C)c(O)c3C2(C)C1=O (stereo not shown) ... Y
11) CC(=O)C1=C(O)C=C2Oc3c(C(=O)CSC(=S)N(C)C)c(O)c(C)c(O)c3[C@@]2(C)C1=O ... N
12) CC(=O)C1=C(O)C=C2Oc3c(C(=O)CSc4ncccc4C(=O)O)c(O)c(C)c(O)c3C2(C)C1=O (stereo not shown) ... N
13) CC(=O)C1=C(O)C=C2Oc3c(C(=O)CSC4=NCCS4)c(O)c(C)c(O)c3[C@@]2(C)C1=O ... Y

Where these numbers come from: paper PMC8583042
